Target: δ opioid receptor (Rattus norvegicus)
Construct: Male Sprague-Dawley rats (300-350 g) from the Canadian Breeding Laboratories were decapitated and after removal of the cerebellum the brains were homogenized; from tissue; host or cells: rat brain (without cerebellum) membranes, male Sprague-Dawley
Sequence (P33533 whole entry): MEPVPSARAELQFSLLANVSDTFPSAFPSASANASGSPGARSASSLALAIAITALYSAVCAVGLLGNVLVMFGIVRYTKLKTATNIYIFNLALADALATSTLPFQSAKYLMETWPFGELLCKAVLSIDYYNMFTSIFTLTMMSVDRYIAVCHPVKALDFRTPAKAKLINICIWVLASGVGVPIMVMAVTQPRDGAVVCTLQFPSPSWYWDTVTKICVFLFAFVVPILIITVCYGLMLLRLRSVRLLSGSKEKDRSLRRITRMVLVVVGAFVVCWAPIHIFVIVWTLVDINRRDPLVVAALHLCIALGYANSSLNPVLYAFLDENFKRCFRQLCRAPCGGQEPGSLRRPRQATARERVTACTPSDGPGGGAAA
Assay: δ opioid receptor binding assay, displacement of δ-selective radioligand from rat brain membranes
Peptide text beside a SMILES is read from it.
MEASURED PARAMETER: Ki (nM)
Your answer is read as nM, so omit the unit and give the number.

N[C@@H](Cc1ccc(O)cc1)C(=O)N1Cc2ccccc2C[C@H]1C(=O)N[C@H](C(=O)N[C@@H](Cc1ccccc1)C(=O)O)c1ccccc1 [HTyrTicPhgPheOH, H-Tyr-Tic-Phg-Phe-OH] (HELM PEPTIDE1{Y.[Tic].[Phg].F}$$$$V2.0): 3.01
N[C@@H](Cc1ccc(O)cc1)C(=O)N1Cc2ccccc2C[C@H]1C(=O)N[C@@H](Cc1cccc2ccccc12)C(=O)N[C@@H](Cc1ccccc1)C(=O)O [HTyrTic-1-NalPheOH, H-Tyr-Tic-1-Nal-Phe-OH] (HELM PEPTIDE1{Y.[Tic].[O=C([C@H](Cc1cccc2ccccc12)N[*:1])[*:2]].F}$$$$V2.0): 1.14
CC(C)[C@H](NC(=O)[C@H](Cc1ccccc1)NC(=O)[C@H](Cc1ccccc1)NC(=O)[C@@H]1Cc2ccccc2CN1C(=O)[C@@H](N)Cc1ccc(O)cc1)C(=O)N[C@H](C(=O)NCC(N)=O)C(C)C [HTyrTicPhePheValValGlyNH2, H-Tyr-Tic-Phe-Phe-Val-Val-Gly-NH2] (HELM PEPTIDE1{Y.[Tic].F.F.V.V.G.[am]}$$$$V2.0): 1.43
N[C@@H](Cc1ccc(O)cc1)C(=O)N1Cc2ccccc2C[C@H]1C(=O)N[C@@H](Cc1ccc2ccccc2c1)C(=O)N[C@@H](Cc1ccccc1)C(=O)O [HTyrTic-2-NalPheOH, H-Tyr-Tic-2-Nal-Phe-OH] (HELM PEPTIDE1{Y.[Tic].[O=C([C@H](Cc1ccc2ccccc2c1)N[*:1])[*:2]].F}$$$$V2.0): 1.31
Cc1cc(O)cc(C)c1C[C@H](N)C(=O)N1Cc2ccccc2C[C@H]1CN[C@@H](Cc1ccccc1)C(=O)N[C@@H](Cc1ccccc1)C(=O)O [HDmtTic.psi.[CH2NH]PhePheOH, H-Dmt-Tic.PSI.[CH2 --NH]Phe-Phe-OH]: 1.7

Challenge: Report Ki, nothing else, for this compound: N[C@@H](Cc1ccc(O)cc1)C(=O)N1Cc2ccccc2C[C@H]1C(=O)N[C@@H](CCc1ccccc1)C(=O)N[C@@H](Cc1ccccc1)C(=O)O [HTyrTicHfePheOH, H-Tyr-Tic-Hfe-Phe-OH] (HELM PEPTIDE1{Y.[Tic].[O=C([C@H](CCc1ccccc1)N[*:1])[*:2]].F}$$$$V2.0)
Response given: 0.277

Challenge: State, in one line, measured Ki of CN[C@@H](Cc1ccc(O)cc1)C(=O)N1Cc2ccccc2C[C@H]1C(=O)N[C@@H](Cc1ccccc1)C(=O)N[C@@H](Cc1ccccc1)C(=O)O [Tyr(N^α Me)-TicPhePheOH, Tyr(N^α Me)-Tic-Phe-Phe-OH] (HELM PEPTIDE1{[meY].[Tic].F.F}$$$$V2.0)
Response given: 1.29
